Where these numbers come from: ChEMBL document CHEMBL3414458

- TARGET_DESC: P2X purinoceptor 7 (Homo sapiens)
- ASSAY_TEXT: Antagonist activity at P2X7 receptor in LPS/IFN-gamma-differentiated human THP1 cells assessed as inhibition of BzATP-induced IL-1beta release at 1 uM preincubated for 30 mins followed by BzATP induction measured after 30 mins by ELISA relative to control
- Type: cell-based
- TEST_SETTINGS: THP-1
Label t when inhibition >= 50%; otherwise f.

Example cases with answers are listed next.
O=C1C(Cc2ccc(OS(=O)(=O)c3cccc4cnccc34)cc2)N(CC2CCN(Cc3ccccc3)CC2)C(=O)N1Cc1cccc2cnccc12 (racemic) :: f
CC(C)(C)OC(=O)N1CCC(N2C(=O)NC(=O)C2Cc2ccc(OS(=O)(=O)c3cccc4cnccc34)cc2)CC1 (racemic) :: t
CC(C)(C)OC(=O)N1CCC(CCN2C(=O)NC(=O)C2Cc2ccc(OS(=O)(=O)c3cccc4cnccc34)cc2)CC1 (racemic) :: t
CCC(=O)N1CCC(N2C(=O)NC(=O)C2Cc2ccc(OS(=O)(=O)c3cccc4cnccc34)cc2)CC1 (racemic) :: f

Attention now turns to another entry.
Problem: # bool: inhibition of CC(C)(C)OC(=O)N1CCC(CN2C(=O)N(Cc3cccc4cnccc34)C(=O)C2Cc2ccc(OS(=O)(=O)c3cccc4cnccc34)cc2)CC1 (racemic) >= 50%
Solution: f
